Test system: SN12C renal
Assay: NCI tumour cell line growth inhibition, 48 h
Collected TGI values appear next to each entry.

[
  {
    "Compound": "Cn1cc(-c2nc(N[C@@H]3CCCC[C@@H]3N)c(F)c3c2C(=O)NC3)cn1",
    "TGI": "> 100 µM"
  },
  {
    "Compound": "Clc1cc2nnn(C3CCCO3)c2cc1Cl (stereo not drawn)",
    "TGI": "> 100 µM"
  },
  {
    "Compound": "O=C(CCC1CCCCN1)Nc1ccc2c(c1)C(=O)c1ccc(NC(=O)CCN3CCCCC3)cc1C2=O (stereo not drawn)",
    "TGI": "4.34 µM"
  },
  {
    "Compound": "CNC(c1ccncc1)C(NC)c1ccncc1 (stereo not drawn)",
    "TGI": "> 100 µM"
  },
  {
    "Compound": "O=C(Nc1cccc(C(F)(F)F)c1)c1cc2ccccc2cc1O",
    "TGI": "> 100 µM"
  },
  {
    "Compound": "S=c1nc[nH]c2c1ncn2C1CCCO1 (stereo not drawn)",
    "TGI": "> 100 µM"
  },
  {
    "Compound": "N#Cc1nc(/C=C/c2cccnc2)oc1N",
    "TGI": "> 100 µM"
  },
  {
    "Compound": "CCCCCCCCCCSC(=N)N",
    "TGI": "18.4 µM"
  },
  {
    "Compound": "COc1ccc(CNc2nc3ccccc3nc2C(=O)O)cc1",
    "TGI": "> 100 µM"
  },
  {
    "Compound": "CC(C)[Si](OCC1CC(C#N)OC(C)(C)O1)(C(C)C)C(C)C (stereo not drawn)",
    "TGI": "> 100 µM"
  },
  {
    "Compound": "NC(=O)c1ccc(N(C(N)=O)c2c(F)cccc2F)nc1-c1ccc(F)cc1F",
    "TGI": "> 100 µM"
  },
  {
    "Compound": "NN/C(=N\\S(=O)(=O)c1ccc(S(=O)(=O)c2ccccc2)s1)Nc1ccc(Cl)cc1",
    "TGI": "77.8 µM"
  },
  {
    "Compound": "NS(=O)(=O)c1ccc(N=Nc2ccc(O)c(C(=O)O)c2)cc1",
    "TGI": "> 100 µM"
  },
  {
    "Compound": "CC(C)(C)Sc1nnc(SC(C)(C)C)c2c(=O)[nH]nc(SC(C)(C)C)c12",
    "TGI": "21.9 µM"
  },
  {
    "Compound": "Cc1cc2nc3c4ccc(Br)cc4n(CCN(C)C)c3nc2cc1C",
    "TGI": "6.18 µM"
  },
  {
    "Compound": "O=C(/C=C/c1cccc2ccccc12)Nc1ncc(Cc2ccccc2)s1",
    "TGI": "> 100 µM"
  },
  {
    "Compound": "COc1cccc(NC2=C(Cl)C(=O)N(Cc3ccc(Cl)cc3)C2=O)c1",
    "TGI": "12.9 µM"
  },
  {
    "Compound": "CCOC(=O)C1=C(C)N(C2OC(COC(=O)c3ccccc3)C(OC(=O)c3ccccc3)C2OC(=O)c2ccccc2)C(=S)NC1c1ccccc1 (stereo not drawn)",
    "TGI": "> 100 µM"
  },
  {
    "Compound": "c1ccc(-c2nnc3nn4c(-c5ccccc5)cnnc4c3c2-c2ccccc2)cc1",
    "TGI": "> 100 µM"
  },
  {
    "Compound": "COc1ccc(-c2n/c(=C\\c3c(O)[nH]c4ccccc34)cc3c2=Nc2ccccc2-3)cc1",
    "TGI": "5.3 µM"
  },
  {
    "Compound": "O=C1CCC(=O)c2sccc2N1",
    "TGI": "> 100 µM"
  },
  {
    "Compound": "Cc1c(Cl)c(C)c(Cc2c(C)c(Cl)c(C)c(Cl)c2O)c(O)c1Cl",
    "TGI": "11.8 µM"
  },
  {
    "Compound": "CC(C)C(NC(=O)C(Cc1ccccc1)NC(=O)[C@H]1CCC[C@H]1NC(=O)C(Cc1ccc(OC(C)(C)C)cc1)NC(=O)OC(C)(C)C)C(N)=O (stereo partly drawn)",
    "TGI": "35.2 µM"
  }
]
